Please go through the items and note down their Activity.
System: Escherichia coli
Experiment: Activity of Escherichia coli K12 beta-lactamase CARB1 relative to penicillin G
A bare number is all that is needed in reply.

Which Activity value is on record for O=C(Cc1cccs1)N[C@@H]1C(=O)N2C(C(=O)[O-])=C(C[n+]3ccccc3)CS[C@H]12 ?
15

Which Activity value is on record for CC(=O)OCC1=C(C(=O)O)N2C(=O)[C@@H](NC(=O)Cc3cccs3)[C@H]2SC1 ?
6

Which Activity value is on record for CC1(C)S[C@@H]2[C@H](NC(=O)C(C(=O)O)c3ccccc3)C(=O)N2[C@H]1C(=O)O (some centres not stated) ?
146

Which Activity value is on record for Cc1onc(-c2ccccc2)c1C(=O)N[C@@H]1C(=O)N2[C@@H]1SC(C)(C)[C@@H]2C(=O)O ?
12

Which Activity value is on record for CC1(C)S[C@@H]2[C@H](NC(=O)[C@H](N)c3ccc(O)cc3)C(=O)N2[C@H]1C(=O)O ?
100

These measurements were taken from ChEMBL document CHEMBL1145510.
